ASSAY PROCEDURE: Cyclic voltammetry
MEASUREMENT SETUP: scan speed 0.05 V/s

SMILES STR | E0’ (Fc*/Fc*+) at 0.05 V/s (V)
O=C(C=C(O)C(F)(F)F)[c-]1cccc1.[Fe+2].c1cc[cH-]c1 | 0.71
CC(O)=CC(=O)[c-]1cccc1.[Fe+2].c1cc[cH-]c1 | 0.63
O=C(C=C(O)c1ccccc1)[c-]1cccc1.[Fe+2].c1cc[cH-]c1 | 0.63
O=C(C=C(O)c1ccco1)[c-]1cccc1.[Fe+2].c1cc[cH-]c1 | 0.64

###

ASSAY PROCEDURE: Cyclic voltammetry
MEASUREMENT SETUP: 0.1 M TBAPF6 in acetonitrile, vs SCE, Fc/Fc+ = 0.40 V internal standard

MOLECULE | E0′ (Fc*/Fc*+), V
O=C(C=C(O)C(F)(F)F)[c-]1cccc1.[Fe+2].c1cc[cH-]c1 [Complex L7] | 0.71
O=C(C=C(O)c1ccccc1)[c-]1cccc1.[Fe+2].c1cc[cH-]c1 [Complex L2] | 0.63
CC(O)=CC(=O)[c-]1cccc1.[Fe+2].c1cc[cH-]c1 [Complex L1] | 0.63
O=C(C=C(O)c1ccco1)[c-]1cccc1.[Fe+2].c1cc[cH-]c1 [Complex L4] | 0.63
